B1: SMG5 (parent)
chain: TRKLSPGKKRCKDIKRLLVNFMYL

Variants of: B1
Procedure text: protein stability index of a GFP-peptide fusion (GPS, HEK-293T) (PSI 1-6); higher = more stable;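 note: lentivirally expressed fusions sorted by FACS into six bins by GFP to DsRed ratio, PSI derived from sequencing read proportions per bin multiplied by bin number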
Test conditions: c terminus: a fixed tail appended
If the reported protein stability index equals or exceeds 2, assign label 1. If not, assign label 0.

Request: Confirm if protein stability index reported for the variant K15N is 2 or above.
Response: label 1

Request: Follow-up item: V19S
Response: label 1

Request: Follow-up item: P6H
Response: label 1

Request: Follow-up item: F21K
Response: label 1

Request: Follow-up item: K3T
Response: label 0

Request: Follow-up item: N20I
Response: label 1

Request: Follow-up item: R10C
Response: label 1

Request: Follow-up item: V19E
Response: label 0

Request: Follow-up item: G7K
Response: label 1

Request: Follow-up item: I14S
Response: label 1

Request: Follow-up item: V19D
Response: label 1

Request: Follow-up item: N20H
Response: label 1

Request: Follow-up item: K3I
Response: label 1

Request: Follow-up item: R2V
Response: label 1

Request: Follow-up item: L18E
Response: label 1

Request: Follow-up item: I14R
Response: label 1

Request: Follow-up item: L18N
Response: label 0

Request: Follow-up item: R16N
Response: label 1

Request: Follow-up item: L17P
Response: label 0

Request: Follow-up item: G7R
Response: label 1

Request: Follow-up item: T1C
Response: label 1

Request: Follow-up item: K8T
Response: label 1

Request: Follow-up item: K9E
Response: label 1

Request: Follow-up item: L18T
Response: label 0

Request: Follow-up item: D13M
Response: label 1

Request: Follow-up item: K9L
Response: label 1

Request: Follow-up item: I14P
Response: label 1

Request: Follow-up item: F21H
Response: label 0

Request: Follow-up item: K12S
Response: label 1

Request: Follow-up item: N20S
Response: label 1

Request: Follow-up item: P6N
Response: label 0

Request: Follow-up item: C11E
Response: label 1

Request: Follow-up item: Y23W
Response: label 1

Request: Follow-up item: S5K
Response: label 1

Request: Follow-up item: T1A
Response: label 0

Request: Follow-up item: G7Q
Response: label 0

Request: Follow-up item: I14D
Response: label 0

Request: Follow-up item: D13R
Response: label 0

Request: Follow-up item: R2Q
Response: label 0

Request: Follow-up item: F21D
Response: label 1

Request: Follow-up item: K12M
Response: label 0

Request: Follow-up item: K15V
Response: label 1

Request: Follow-up item: T1E
Response: label 1

Request: Follow-up item: I14G
Response: label 0

Request: Follow-up item: M22H
Response: label 0
